Biological target: Human GLP-1R (Homo sapiens)
Sequence (P43220 24-463): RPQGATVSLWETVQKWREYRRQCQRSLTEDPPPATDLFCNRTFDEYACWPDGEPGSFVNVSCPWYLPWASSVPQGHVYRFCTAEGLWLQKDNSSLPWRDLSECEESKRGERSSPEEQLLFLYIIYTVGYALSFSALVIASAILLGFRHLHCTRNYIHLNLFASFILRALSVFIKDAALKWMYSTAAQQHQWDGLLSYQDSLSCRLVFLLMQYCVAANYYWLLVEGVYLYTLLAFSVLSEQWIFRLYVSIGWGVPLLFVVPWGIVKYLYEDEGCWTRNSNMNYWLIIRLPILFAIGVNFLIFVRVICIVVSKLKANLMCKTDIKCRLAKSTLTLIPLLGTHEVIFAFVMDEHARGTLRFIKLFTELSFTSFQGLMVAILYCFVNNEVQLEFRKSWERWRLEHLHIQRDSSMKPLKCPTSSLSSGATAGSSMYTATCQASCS
Experiment: cAMP level determination in human GLP-1R stably transfected HEK293T cells (HTRF cAMP kit)
Settings: 37°C 30 min
Consider the cut-off 10 nM. If the recorded EC50 is strictly smaller, the label is label 1; if not, the label is label 0.

Q: Lab log: compare recorded EC50 with 10 nM; is it strictly lower for Cc1cc(-n2nc3c(c2-n2ccn(-c4ccc(N(C)C(=O)C5CC5)c(F)c4)c2=O)[C@H](C)N(C(=O)c2cc4cc([C@H]5CCOC(C)(C)C5)ccc4n2[C@@]2(c4noc(=O)[nH]4)C[C@@H]2C)CC3)cc(C)c1F [Compound 63b] ?
Ans: label 1

Q: // next record Cc1cc(-n2nc3c(c2-n2ccn(-c4cccc(C#N)c4)c2=O)[C@H](C)N(C(=O)c2cc4cc(C5CCOC(C)(C)C5)ccc4n2[C@@]2(c4nc(=O)o[nH]4)C[C@@H]2C)CC3)cc(C)c1F (some centres unmarked) [Compound 80]
Ans: label 0

Q: What would you report for Cc1cc(-n2nc3c(c2-n2ccn(-c4ccc(C#N)c(OC(F)(F)F)c4)c2=O)[C@H](C)N(C(=O)c2cc4cc(C5CCOC(C)(C)C5)ccc4n2[C@@]2(c4nc(=O)o[nH]4)C[C@@H]2C)CC3)cc(C)c1F (some centres unmarked) [Compound 78] ?
Ans: label 0

Q: Note, next up: Cc1cc(-n2nc3c(c2-n2ccn(-c4ccc(OC(F)(F)F)c(C(=O)N(C)C5CC5)c4)c2=O)[C@H](C)N(C(=O)c2cc4cc(C5CCOC(C)(C)C5)ccc4n2[C@@]2(c4nc(=O)o[nH]4)C[C@@H]2C)CC3)cc(C)c1F (some centres unmarked) [Compound 38]
Ans: label 0

Q: Note, next up: Cc1cc(-n2nc3c(c2-n2ccn(-c4ccc(N(C)C(=O)C5CC5)cc4F)c2=O)[C@H](C)N(C(=O)c2cc4cc([C@H]5CCOC(C)(C)C5)ccc4n2[C@@]2(c4nc(=O)o[nH]4)C[C@@H]2C)CC3)cc(C)c1F [Compound 76]
Ans: label 1

Q: Another compound to look at: Cc1cc(-n2nc3c(c2-n2ccn(-c4ccc(C(=O)N(C)C5CC5)c(OCC5CC5)c4)c2=O)[C@H](C)N(C(=O)c2cc4cc(C5CCOC(C)(C)C5)ccc4n2[C@@]2(c4nc(=O)o[nH]4)C[C@@H]2C)CC3)cc(C)c1F (some centres unmarked) [Compound 43]
Ans: label 0

Q: Next compound up: Cc1cc(-n2nc3c(c2-n2ccn(-c4cc(F)c(C#N)cc4F)c2=O)[C@H](C)N(C(=O)c2cc4cc(C5CCOC(C)(C)C5)ccc4n2[C@@]2(c4nc(=O)o[nH]4)C[C@@H]2C)CC3)cc(C)c1F (some centres unmarked) [Compound 83]
Ans: label 0

Q: Also check Cc1cc(-n2nc3c(c2-n2ccn(-c4ccc(C(=O)N(C)C5CC5)c(OC(F)F)c4)c2=O)[C@H](C)N(C(=O)c2cc4cc(C5CCOC(C)(C)C5)ccc4n2[C@@]2(c4nc(=O)o[nH]4)C[C@@H]2C)CC3)cc(C)c1F (some centres unmarked) [Compound 31]
Ans: label 0

###

Overview of reported AUC(0-t) at 24 h across a group of compounds:
Assay: Pharmacokinetic analysis of compounds in mouse plasma after oral gavage or intravenous injection
Format: in vivo, Male C57BL/6J mice
Details: mouse plasma, dose 5 mg/kg single oral gavage
# output: bare number, implied unit ng·h/mL

Examples with answers:
Cc1cc(-n2nc3c(c2-n2ccn(-c4ccc(C(=O)N(C)C5CC5)c(F)c4F)c2=O)[C@H](C)N(C(=O)c2cc4cc([C@H]5CCOC(C)(C)C5)ccc4n2[C@@]2(c4nc(=O)o[nH]4)C[C@@H]2C)CC3)cc(C)c1F = 36700
Cc1cc(-n2nc3c(c2-n2ccn(-c4ccc(C(=O)N(C)C5CC5)c(Cl)c4)c2=O)[C@H](C)N(C(=O)c2cc4cc([C@H]5CCOC(C)(C)C5)ccc4n2[C@@]2(c4nc(=O)o[nH]4)C[C@@H]2C)CC3)cc(C)c1F = 35200

Moving on to another compound below.
Q: Return reported AUC(0-t) at 24 h; argument: Cc1cc(-n2nc3c(c2-n2ccn(-c4ccc(C(=O)N(C)C5CC5)c(Cl)c4F)c2=O)[C@H](C)N(C(=O)c2cc4cc([C@H]5CCOC(C)(C)C5)ccc4n2[C@@]2(c4nc(=O)o[nH]4)C[C@@H]2C)CC3)cc(C)c1F
Ans: 34700

Just for reference, patent EP4737454A1 is where these values come from.
